Exercise: state measured TGI for each of the compounds provided.
system: HT29 colon; assay: NCI tumour cell line growth inhibition, 48 h

The following compounds have reported results that may help.
1. COc1cc(/C=N/N=C(\N)NO)ccc1O ... > 100 µM
2. N#CCCN(C1=NN(C(=O)CC(=O)Nc2ccc(Cl)cc2)C(c2ccccc2)C1)c1ccc(Cl)cc1 (stereo unspecified) ... > 100 µM
3. C1=Nc2ccccc2Cn2nncc21 ... > 100 µM
4. Cc1ccc(NC(=O)CC(=O)N2N=C(N3CCCCC3)CC2c2ccccc2)cc1 (stereo unspecified) ... > 100 µM
5. COc1ccc2nc3cc([N+](=O)[O-])ccc3c(NNc3ccc([N+](=O)[O-])cc3)c2c1 ... > 63.9 µM

Parameter requested: TGI. Apply to each item below.
1. O=C(Nc1ccn(C2CC(I)C(COC(c3ccccc3)(c3ccccc3)c3ccccc3)O2)c(=O)n1)c1ccccc1 (stereo unspecified)
2. COC(=O)C1CC(c2ccc(Cl)cc2)=NO1 (stereo unspecified)
3. CC(C)=CC1C(COC(=O)c2ccccc2Cl)C1(C)C (stereo unspecified)
4. COC(=O)CN=C1NC(=S)N(Cc2ccc(OC)cc2)C12CCCC2
5. CN1C(=S)CSc2ccccc21

Outgoing:
1. 21.5 µM
2. > 100 µM
3. > 100 µM
4. > 100 µM
5. > 100 µM

Parameter requested: TGI. Apply to each item below.
1. Cc1ccc(NC(=O)CCc2nnc3s/c(=C\c4cccc([N+](=O)[O-])c4)c(=O)n23)cc1
2. C/C(=N\Nc1nc2ccccc2o1)c1ncccn1
3. O=C1C(Cl)=C(N2CCN(CCOCCO)CC2)C(=O)c2ccccc21

Outgoing:
1: > 100 µM; 2: 45.4 µM; 3: 30 µM

Parameter requested: TGI. Apply to each item below.
1. Cc1cc(N(CCC#N)CCC#N)ccc1/C=C1N=C(/C=C/c2ccccc2)N(c2ccc(S(N)(=O)=O)cc2)C\1=O
2. N.N.N.N.N.N#Cc1nn[n-]n1.[Cl-].[Co+3]
3. CC1(CO)C(O)CCC2(C)C1C(O)CC1CC3CC12CCC3(O)CO (stereo unspecified)
4. CC1(c2nc3ccccc3[nH]2)CCC(C#N)C(C)(C)O1 (stereo unspecified)
5. COC(O)C(=O)c1c2c(cc3c1CCC3)CCC2 (stereo unspecified)
6. C/C=C(\C)c1cc(=O)c2c(C)cc3c(c2o1)C(OC)(OC(C)=O)c1c(O)c(C2CC(C)(N(C)C)C(OC(C)=O)C(C)O2)cc(C2CC(N(C)C)C(OC(C)=O)C(C)O2)c1C3=O (stereo unspecified)
7. COc1cccc(N2C(=O)/C(=C/c3ccc(N(CCC#N)CCC#N)cc3)N=C2c2cc([N+](=O)[O-])ccc2Cl)c1
8. COc1ccc(/C=C2\C[C@H]3[C@@H]4CC=C5C[C@@H](OC(C)=O)CC[C@]5(C)[C@H]4CC[C@]3(C)C2=O)cc1OC

Outgoing:
1. > 100 µM
2. > 100 µM
3. > 225 µM
4. > 100 µM
5. > 100 µM
6. > 20.4 µM
7. > 100 µM
8. > 100 µM

###

Exercise: state measured log10 of TGI for each of the compounds provided.
test system: HOP-92 NSCLC; assay: NCI tumour cell line growth inhibition, 48 h
For clarity, the numbers are log10 values of TGI expressed in µM.

1) COc1ccc(C2=NN(C=O)C(c3ccc(OS(=O)(=O)c4ccc(C)cc4)c(OC)c3)C2)cc1 (stereo unspecified) ... 1.49
2) N#CC(c1ccccc1)N(CCc1ccccc1)C(=O)c1ccc(C(=O)N(CCc2ccccc2)C(C#N)c2ccccc2)cc1 (stereo unspecified) ... 1.45
3) O=[N+]([O-])c1ccc(Cc2nc3cc4ccccc4cc3[nH]2)cc1C(F)(F)F ... 1.61

Parameter requested: log10 of TGI. Apply to each item below.
1. N#Cc1sc2c(c1OC(=O)c1ccc(Cl)cc1)c(=O)n(-c1ccccc1)c(=S)n2-c1ccccc1
2. Cc1c2oc3c(C)cnc(C(=O)NC4C(=O)NC(C(C)C)C(=O)N5CCCC5C(=O)N(C)CC(=O)N(C)C(C(C)C)C(=O)OC4C)c3nc-2c(C(=O)NC2C(=O)NC(C(C)C)C(=O)N3CCCC3C(=O)N(C)CC(=O)N(C)C(C(C)C)C(=O)OC2C)c(N)c1=O (stereo unspecified)
3. N#CC(C(=O)/C(=N/NC(=O)c1ccccc1O)C(C#N)c1ccc(Br)cc1)c1ccc(Br)cc1 (stereo unspecified)
4. CCC(=O)N(c1ccccc1)C(C)CN1CCC(O)(c2cccc(C(F)(F)F)c2)CC1 (stereo unspecified)
5. COc1ccc(Cc2cc(OC)c(OC)c(OC)c2)cc1
6. COc1ccc2nc3cc(Cl)ccc3c(NCCNCC(O)CO)c2c1 (stereo unspecified)

Outgoing:
[1.82, 1.56, 1.49, 1.79, 1.93, 0.86]

Parameter requested: log10 of TGI. Apply to each item below.
1. CC(C)=CC1C(COC(=O)c2ccccc2Cl)C1(C)C (stereo unspecified)
2. CSC1=C(SC)C(=O)c2cn(C)c(=O)cc2C1=O
3. CCCCCCCCCCCCNC(=O)N[C@H](C(=O)N[C@H]1/C=C/CCNC(=O)/C=C/[C@H](C)NC1=O)C(C)C
4. O=C(NCCCl)NCCN1c2nc3ccccc3cc2Sc2cc3ccccc3nc21
5. C[C@]12CCCN1CC1=NNC(=O)c3cc(F)cc4[nH]c2c1c34

Outgoing:
1: 1.94; 2: 0.33; 3: -0.45; 4: 0.87; 5: 1.32

###

Exercise: state measured TGI for each of the compounds provided.
tested on: HT29 colon; assay: NCI tumour cell line growth inhibition, 48 h

The following compounds have reported results that may help.
1) CN1C(=O)/C(=C2\S/C(=N\c3nnc(-c4ccccc4)o3)NC2=O)c2ccccc21 ... > 100 µM
2) O=C(NCCCl)NCCN1c2nc3ccccc3cc2Sc2cc3ccccc3nc21 ... 8.89 µM
3) O=CC1CCC=CC1NC(=O)OCc1ccccc1 (centres undefined) ... > 100 µM
4) O=c1oc2ccc3ccccc3c2cc1-c1nc(-c2ccc([N+](=O)[O-])cc2)n[nH]1 ... > 100 µM
5) Cc1ccc(C(=O)O)c(/C=C2\Cc3cc(C)cc(C)c3C2=O)c1 ... > 100 µM

Parameter requested: TGI. Apply to each item below.
1. CN1CN(c2ccccc2)C2(CCN(C3Nc4ccccc4O3)CC2)C1=O (centres undefined)
2. C[C@@H]1CC[C@H]2[C@@H](C)C(OC/C=C/COC3O[C@@H]4O[C@@]5(C)CC[C@H]6[C@H](C)CC[C@@H]([C@H]3C)[C@@]46OO5)O[C@@H]3O[C@@]4(C)CC[C@@H]1[C@]32OO4 (some centres undefined)
3. O=S(=O)(Nc1nccs1)c1ccc([As](=O)(O)O)cc1
4. Fc1cc(C2=Nn3c(CNc4ccc(Cl)cc4)nnc3S/C2=C\c2ccc(-c3ccc(Cl)cc3)o2)c(Cl)cc1Cl

Outgoing:
33 µM
> 100 µM
> 100 µM
> 100 µM

###

system: SK-OV-3 ovarian; test: NCI tumour cell line growth inhibition, 48 h
Label satisfied when TGI is at or above 20 µM; anything below gets not satisfied.

Record excerpt, results attached:
1. N#CC(NNC(=O)c1c(Cl)c(Cl)c(Cl)c(Cl)c1-c1nc2ccc(C(=O)c3ccccc3)cc2[nH]1)c1ccccc1 (centres undefined) ... satisfied
2. C/C=C(\C)c1cc(=O)c2c(C)cc3c(c2o1)C(OC)(OC(C)=O)c1c(O)c(C2CC(C)(N(C)C)C(OC(C)=O)C(C)O2)cc(C2CC(N(C)C)C(OC(C)=O)C(C)O2)c1C3=O (centres undefined) ... not satisfied
3. CC(C)n1nc(C#Cc2cccc(O)c2)c2c(N)ncnc21 ... not satisfied
4. COc1ccc(C(=O)N2CCN(c3ccc4c(c3)OCC(=O)N4)CC2)cc1OC ... satisfied

Incoming: Please indicate if the recorded TGI for O=C(CC(Cc1ccccc1)c1ccc(Oc2ccccc2)cc1)Nc1cccc(Cl)c1 (centres undefined) meets or exceeds 20 µM.
Outgoing: satisfied

Incoming: Please indicate if the recorded TGI for O=c1sc(Nc2ccc3ccccc3c2Cl)nc2ccccc12 meets or exceeds 20 µM.
Outgoing: satisfied

Incoming: Please indicate if the recorded TGI for O=C(CN1CCN(CCN2C(=O)c3cccc4cccc(c34)C2=O)CC1)Nc1ccc2ncsc2c1 meets or exceeds 20 µM.
Outgoing: satisfied

Incoming: Please indicate if the recorded TGI for COc1ccc(-c2[nH]c(-c3ccc(OC)cc3)c(-c3ccccn3)c2-c2ccccn2)cc1 meets or exceeds 20 µM.
Outgoing: satisfied

Incoming: Please indicate if the recorded TGI for COc1ccc(C2CC(c3ccccc3)=NN2C(=O)c2cc(OC)c(OC)c(OC)c2)cc1O (centres undefined) meets or exceeds 20 µM.
Outgoing: not satisfied

###

system: SF-295 CNS; test: NCI tumour cell line growth inhibition, 48 h; in the data active means GI50 below about 0.43 µM; inactive means the rest
Can you answer with just one of these options? active, inactive

Record excerpt, results attached:
1) O=c1c2cccc(F)c2sc2c(NCCCNCCO)nc3ccccc3c12 ... inactive
2) c1ccc(COCC[P+](c2ccccc2)(c2ccccc2)c2ccccc2)cc1 ... inactive
3) CC(C)C(=O)Nc1ccc(-c2nc(-c3cccc(OCCN4CCOCC4)c3)c(-c3ccnc(Br)c3)[nH]2)cc1 ... inactive
4) O=C(/C=C/c1ccco1)Nc1ncc(Cc2cccc(C(F)(F)F)c2)s1 ... active
5) Cc1cc(I)cc(CNCCN2CCOCC2)c1O ... inactive

Please look at the following molecule next.
Incoming: For this molecule, state the assay outcome: CCC[CH2][Sn]1([CH2]CCC)[O]C(=O)CN=C(C)c2ccccc2[O]1
Outgoing: inactive
